Consider the following variants; for each one, report its protein stability index.
B1: SLC6A17 (parent)
chain: HMFTPKLDKMLDPQVWREAATQVF

Variants of: B1
Experiment: protein stability index of a GFP-peptide fusion (GPS, HEK-293T) (PSI 1-6); higher = more stable;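 note: lentivirally expressed fusions sorted by FACS into six bins by GFP to DsRed ratio, PSI derived from sequencing read proportions per bin multiplied by bin number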
Conditions: c terminus: a fixed tail appended
Give bare numbers.

>>> quantitative_result("V15F")
2.22
>>> quantitative_result("W16G")
3.27
>>> quantitative_result("A20I")
2.21

Below are some variants; for each one, tell me its protein stability index.
1. L7Y
2. W16L
3. H1Q

1.46
2.34
2.29

Parameter requested: protein stability index. Apply to each item below.
1. A20G
2. R17P
3. M2S
4. H1K
5. V23N
6. K9W
7. D12E

1: 1.82; 2: 1.89; 3: 2.03; 4: 1.5; 5: 2.07; 6: 2.95; 7: 1.39

Items follow; give protein stability index for each.
1. V23Q
2. M10V
3. L7M
4. R17L

[1.74, 1.85, 2.38, 3.05]
